The reader will find reported ELISA affinity (LogIC50 (oD450nm)) values listed item by item below.
Biological target: human serum albumin (human) (UniProt P02768)
Sequence (P02768 25-609 limits assumed): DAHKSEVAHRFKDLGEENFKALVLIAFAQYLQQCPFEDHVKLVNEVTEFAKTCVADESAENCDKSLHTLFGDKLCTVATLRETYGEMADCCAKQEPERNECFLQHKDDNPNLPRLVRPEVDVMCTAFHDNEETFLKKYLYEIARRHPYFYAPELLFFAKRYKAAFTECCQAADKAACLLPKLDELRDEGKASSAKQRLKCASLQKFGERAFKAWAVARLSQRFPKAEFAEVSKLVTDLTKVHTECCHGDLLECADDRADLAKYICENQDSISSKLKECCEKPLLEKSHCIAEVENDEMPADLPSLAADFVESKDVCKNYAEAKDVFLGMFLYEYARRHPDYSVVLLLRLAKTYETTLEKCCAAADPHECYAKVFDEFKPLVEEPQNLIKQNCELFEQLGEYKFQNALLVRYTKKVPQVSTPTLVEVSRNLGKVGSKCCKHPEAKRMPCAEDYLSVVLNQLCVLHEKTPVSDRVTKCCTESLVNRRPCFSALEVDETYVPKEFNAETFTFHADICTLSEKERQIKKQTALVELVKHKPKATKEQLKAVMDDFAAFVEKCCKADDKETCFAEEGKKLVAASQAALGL
Test: indirect ELISA, HSA coated
observation-type: ELISA affinity (LogIC50 (oD450nm))

H31 (VHH) VHH: QVQLVESGGGLVQPGGSLRLSCTPSGFRLEDYPIAWFRQAPGKEREGLSCITSGDGRTYYEESVKGRFTISRDNAQNKVYLQMNKLTPEDTAVYHCATVPSDNLCGYLHRRPFASWGQGTQVTVSS : 1.07
H44 (VHH) VHH: EVQLVESGGGLAQAGGSLRLSCAASGGTFSNSCMGWFRQAPGMEREFVAIIRSTGHTTYADSVEGRFTVSRDIAKNTVYLEMNSLKPEDTAVYSCAAGASDYGCYHTSGISYWGQGTQVTVSS : 5.62
H38 (VHH) VHH: HVQLVESGGGLVQAGGSLRLSCAASELTFSNYAMGWFRRAPGKERGFVAAISYSGGSTDYADSVKGRFTISRDNAKKTVYLQMNSLKPEDTAVYYCAAAYMGWGTARSAYEYWGQGTQVTVSS : 2.44
H34 (VHH) VHH: QVQLVESGGGLVQAGGSLRLSCAASGRTLSSYDMGWFRKAPGKEREFVAAITRHDYNTYYRDSVKGRFTISRDNAKNTVYLQMNSLKSEDTAVYFCAARLDPIFASNSAYSNLYDYWGQGTQVTVSS : 5.07

The values you see were collected from patent US20230176070A1.
